# combination Emax per entry
System: PA-TU-8902 (Pancreatic Carcinoma)
Experiment: combination Emax (second highest fraction inhibited in the dose matrix, 72 h); higher = more inhibition; extreme values may be limits of the assay
Give only the figure.

Worked examples follow.
Compound	combination Emax
C[C@@H]1COCCN1c1cc(C2([S@](C)(=N)=O)CC2)nc(-c2ccnc3[nH]ccc23)n1 [AZD6738] + O=C(c1cc(Cc2n[nH]c(=O)c3ccccc23)ccc1F)N1CCN(C(=O)C2CC2)CC1 [Olaparib] (first compound max 10 µM, 7x7, partner max 10 µM)	0.195
Cc1nc(Nc2ncc(C(=O)Nc3c(C)cccc3Cl)s2)cc(N2CCN(CCO)CC2)n1 [Dasatinib] + CC(=O)Nc1cccc(-n2c(=O)n(C3CC3)c(=O)c3c(Nc4ccc(I)cc4F)n(C)c(=O)c(C)c32)c1 [Trametinib] (first compound max 2 µM, 7x7, partner max 1 µM)	0.589

Now for another entry.
Consider the compound CCc1c2c(nc3ccc(O)cc13)-c1cc3c(c(=O)n1C2)COC(=O)[C@]3(O)CC [SN-38] + O=C(c1cc(Cc2n[nH]c(=O)c3ccccc23)ccc1F)N1CCN(C(=O)C2CC2)CC1 [Olaparib] (first compound max 0.3 µM, 7x7, partner max 10 µM) tested on PA-TU-8902 (Pancreatic Carcinoma); state its combination Emax. 0.428

* * *

# combination Emax per entry
System: CAL-39 (Other Solid Carcinomas)
Assay: combination Emax (second highest fraction inhibited in the dose matrix, 72 h); higher = more inhibition; extreme values may be limits of the assay
Give only the figure.

Compound	combination Emax
N#Cc1cnc(Nc2cc(NC[C@H]3CNCCO3)c(C(F)(F)F)cn2)cn1 [SRA737] + Nc1ccn([C@@H]2O[C@H](CO)[C@@H](O)C2(F)F)c(=O)n1 [Gemcitabine] (first compound max 10 µM, 7x7, partner max 0.3 µM)	0.932

Now for another entry.
Return combination Emax for the following compound: Cn1cnc2c(F)c(Nc3ccc(Br)cc3Cl)c(C(=O)NOCCO)cc21 [Selumetinib] + CC(C)n1c(=O)n(C)c2cnc3cc(F)c(-c4ccc(OCCCN5CCCCC5)nc4)cc3c21 [AZD1390] (first compound max 10 µM, 7x7, partner max 0.3 µM) 0.643

* * *

Test system: EKVX (Non-Small Cell Lung Carcinoma)
Assay: combination Emax (second highest fraction inhibited in the dose matrix, 72 h); higher = more inhibition; extreme values may be limits of the assay
Measurement type: combination Emax

Worked examples follow.
Molecule	Measured target	combination Emax
Cc1c2c(nn1C)CSCc1cc(n(C)n1)CSc1cc(c3ccccc3c1)OCCCc1c(C(=O)O)n(C)c3c-2c(Cl)ccc13 [AZD5991] + C[C@@H]1COCCN1C2=NC(=NC(=C2)C3(CC3)[S@](=N)(=O)C)C4=C5C=CNC5=NC=C4 [AZD6738] (first compound max 1 µM, 7x7, partner max 10 µM)	EKVX (Non-Small Cell Lung Carcinoma)	0.29
CN(C)CCCOc1ccc(-c2ccc3ncc4c(c3c2)n(C2CCOCC2)c(=O)n4C)cn1 [AZD0156] + C=CCn1c(=O)c2cnc(Nc3ccc(N4CCN(C)CC4)cc3)nc2n1-c1cccc(C(C)(C)O)n1 [AZD1775] (first compound max 1 µM, partner max 1 µM)	EKVX (Non-Small Cell Lung Carcinoma)	0.179
COc1cccc(OCCCN)c1-c1cc(Nc2cnc(C#N)cn2)n[nH]1 [Prexasertib] + O=C(c1cc(Cc2n[nH]c(=O)c3ccccc23)ccc1F)N1CCN(C(=O)C2CC2)CC1 [Olaparib] (first compound max 1 µM, 7x7, partner max 10 µM)	EKVX (Non-Small Cell Lung Carcinoma)	0.194
CCc1c2c(nc3ccc(O)cc13)-c1cc3c(c(=O)n1C2)COC(=O)[C@]3(O)CC [SN-38] + CN(C)CCCOc1ccc(-c2ccc3ncc4c(c3c2)n(C2CCOCC2)c(=O)n4C)cn1 [AZD0156] (first compound max 0.3 µM, 7x7, partner max 1 µM)	EKVX (Non-Small Cell Lung Carcinoma)	0.188
COc1cccc(OCCCN)c1-c1cc(Nc2cnc(C#N)cn2)n[nH]1 [Prexasertib] + Cc1cc2ncnn2cc1Nc1ncc2c(n1)n(C1CCOCC1)c(=O)n2C [AZD7648] (first compound max 1 µM, 7x7, partner max 10 µM)	EKVX (Non-Small Cell Lung Carcinoma)	0.276

Return combination Emax for the following molecule: Cc1cc2ncnn2cc1Nc1ncc2c(n1)n(C1CCOCC1)c(=O)n2C [AZD7648] + O=C(c1cc(Cc2n[nH]c(=O)c3ccccc23)ccc1F)N1CCN(C(=O)C2CC2)CC1 [Olaparib] (first compound max 10 µM, 7x7, partner max 10 µM) 0.147

Return combination Emax for the following molecule: CN(CCO)CC[C@H](CSc1ccccc1)Nc1ccc(S(=O)(=O)NC(=O)c2ccc(N3CCC([C@@H](O)c4ccccc4-c4ccc(Cl)cc4)CC3)cc2)cc1S(=O)(=O)C(F)(F)F [AZD4320] + CCN(CCO)CCCOc1ccc2c(Nc3cc(CC(=O)Nc4cccc(F)c4)[nH]n3)ncnc2c1 [AZD2811] (first compound max 1 µM, 7x7, partner max 1 µM) 0.155

Return combination Emax for the following molecule: CC1(C)CCC(CN2CCN(c3ccc(C(=O)NS(=O)(=O)c4ccc(NCC5CCOCC5)c([N+](=O)[O-])c4)c(Oc4cnc5[nH]ccc5c4)c3)CC2)=C(c2ccc(Cl)cc2)C1 [Venetoclax] + C1CN(CCC1(C(=O)N[C@@H](CCO)C2=CC=C(C=C2)Cl)N)C3=NC=NC4=C3C=CN4 [Capivasertib] (first compound max 1 µM, 7x7, partner max 3 µM) 0.302

Return combination Emax for the following molecule: CC1(C)CCC(CN2CCN(c3ccc(C(=O)NS(=O)(=O)c4ccc(NCC5CCOCC5)c([N+](=O)[O-])c4)c(Oc4cnc5[nH]ccc5c4)c3)CC2)=C(c2ccc(Cl)cc2)C1 [Venetoclax] + COc1cc(Nc2ncc3c(n2)-c2ccc(Cl)cc2C(c2c(F)cccc2OC)=NC3)ccc1C(=O)O [Alisertib] (first compound max 1 µM, 7x7, partner max 10 µM) 0.646
